Values compiled from PubChem BioAssay (NCI).

System: SF-539 CNS
ASSAY_COMMENT: NCI tumour cell line growth inhibition, 48 h
Provide the recorded TGI for the entries that follow.

The cases that follow already have their TGI on record.
{"columns": ["SMILES_DATA", "TGI"],
 "data": [
  ["Cc1nc(-c2cccnc2)sc1C(=O)/C=C/c1ccc(Cl)cc1Cl", "> 100 µM"],
  ["O=C1OC(c2ccccc2)=N/C1=C\\c1ccc(N(CCCl)CCCl)cc1", "> 100 µM"]
]}

# context switch: different compound, same TGI
Prompt line: Give TGI; test system SF-539 CNS; compound OCCn1c(-c2ccncc2)c(-c2ccc(F)cc2)c2ncccc21
Response line: > 25 µM

###

System: CCRF-CEM leukemia
ASSAY_COMMENT: NCI tumour cell line growth inhibition, 48 h
Provide the recorded TGI for the entries that follow.
Numbers only, in µM.

Please report TGI for every entry that follows.
1. [O-]c1c2cc(-[n+]3c(-c4ccccc4)cc(-c4ccccc4)cc3-c3ccccc3)cc1CO[C@@H](c1ccccc1)[C@H](c1ccccc1)OCCOCCO[C@@H](c1ccccc1)[C@H](c1ccccc1)OC2
2. Cn1nc(-c2ccccc2)c(C(=O)/C=C/c2ccccc2)c(N2CCCC2)c1=O

Response line:
[0.238, 40.6]

Please report TGI for every entry that follows.
1. CC(=O)Oc1c(OC(C)C)cc(=O)n2ccsc12
2. O=C1COc2c(CCNCCN(C(=O)CCNCCc3ccc(Cl)c(Cl)c3)C3CCCCC3)ccc(O)c2N1

Response line:
1. 70.4
2. 27.6

###

Provide the recorded TGI for the entries that follow.
Tested on: HOP-62 NSCLC
ASSAY_COMMENT: NCI tumour cell line growth inhibition, 48 h

{"columns": ["MOLECULE", "MEASURED_ON", "TGI"],
 "data": [
  ["O=C1CSC(c2cccc(Oc3ccccc3)c2)N1c1cc(Cl)ccc1Cl (stereo not drawn)", "HOP-62 NSCLC", "47.1 µM"],
  ["COc1cc2c(cc1OCCCN1CCN(CCCn3c4ccccc4c4ccccc43)CC1)N=C[C@@H]1CCCN1C2=O", "HOP-62 NSCLC", "2.46 µM"],
  ["Cn1c(=O)c(-c2c(Cl)cccc2Cl)cc2cnc(Nc3ccc(N4CCOCC4)cc3)nc21", "HOP-62 NSCLC", "0.124 µM"]
]}

Please report TGI for every entry that follows.
1. COC(=O)c1ccccc1NCc1cc(O)ccc1O
2. Nc1nc2c(ccc3ccccc32)[nH]1
3. O=C(c1ccccc1)n1c2ccc(Br)cc2c2nc3ccccc3nc21
4. CCCNc1ncnc2c1cnn2C

Response line:
["> 71.4 µM", "> 10 µM", "> 100 µM", "> 100 µM"]

###

System: M14 melanoma
ASSAY_COMMENT: NCI tumour cell line growth inhibition, 48 h
MEASURED_PARAMETER: TGI

{"columns": ["COMPOUND", "MEASURED_ON", "TGI"],
 "data": [
  ["O=C1Cc2c(-c3ccccc3)cc(-c3ccc(Cl)cc3)nc2-c2ccccc2N1", "M14 melanoma", "> 70.4 µM"]
]}

Please report TGI for every entry that follows.
1. Cc1ccc(C)c(C(=O)CC2OC(O)C(Cl)C2Cl)c1 (stereo not given)
2. Cn1c(=O)c(Oc2ccc(F)cc2F)cc2cnc(NC3CCC(O)CC3)nc21 (stereo not given)
3. O=C(c1ccccc1)n1c2ccc(Br)cc2c2nc3ccccc3nc21
4. COC(=O)c1ccccc1NCc1cc(O)ccc1O

Response line:
["> 100 µM", "> 25 µM", "> 100 µM", "17.1 µM"]
